B1: E3 ubiquitin-protein ligase Midline-1, residues 172 to 214; numbered along this chain, O15344 (parent)
chain: GLMCLEHEDEKVNMYCVTDDQLICALCKLVGRHRDHQVAALSE

- Variants of: B1
- ASSAY_OVERVIEW: abundance fitness (aPCA) (normalised: wild type 0, dead -1); higher = more abundant; growth selection in yeast, the domain comes from the species named
- MEASUREMENT_CONTEXT: Homo sapiens
Below: a set of entries, each annotated with reported abundance fitness.
READOUT_LABEL: abundance fitness

In [3]: df
Out[3]:
    variant_code      readout_label  measured
 0          N13T  abundance fitness    -0.043
 1          N13S  abundance fitness    -0.345
 2          V12Q  abundance fitness     0.328
 3          C16W  abundance fitness     -1.19
 4          N13V  abundance fitness    -0.396
 5          Q37T  abundance fitness    -0.026
 6          D19F  abundance fitness    -0.218
 7          Y15M  abundance fitness    -0.094
 8          V30G  abundance fitness     0.134
 9          R32S  abundance fitness     0.073
10          A25T  abundance fitness     -0.16
11          I23V  abundance fitness     0.151
12          A25E  abundance fitness    -0.018
13          D19T  abundance fitness    -0.984
14          K11H  abundance fitness      0.19
15          L26R  abundance fitness     0.272
16          V30I  abundance fitness    -0.131
17          V30C  abundance fitness    -0.115
18          S42Q  abundance fitness    -0.049
19          R34I  abundance fitness         0
20          V30D  abundance fitness     0.145
21          R32D  abundance fitness    -0.072

These measurements were taken from the Human Domainome abundance scans (Beltran et al. 2025).
